This collection of values is drawn from PubChem BioAssay AID2060484.

# Tested on: SUM149PT spheroids with HUVEC/MSC, viability
# TEST NAME: Anticancer human tumor SUM149PT cell line growth inhibition [GQUAD];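 note: spheroids exposed to drugs for seven days before readout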;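 for viability, T/C: percent viability relative to DMSO vehicle control taken as 100%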
# TEST PARAMETERS: second compound 1 µM; first compound 1 µM; stronger effect = lower value
Lab note: cut-off is 50%. Strictly less in viability, T/C is MET. Exactly 50% or more is NOT MET.

Query: Consider the compound O=C(NO)c1cnc(N2CCN(S(=O)(=O)c3ccc4ccccc4c3)CC2)nc1 + Cc1[nH]c2ccc(F)cc2c1-c1nc2c3cccnc3c3ncccc3c2[nH]1 . Is its viability, T/C strictly less than 50%?
Result: MET

Query: Consider the compound C#Cc1c(F)ccc2cc(O)cc(-c3ncc4c(N5CC6CCC(C5)N6)nc(OCC56CCCN5CC(F)C6)nc4c3F)c12 (stereo not given) + CN(C)c1ccc(Nc2c3ccc(NC(=O)CCN4CCCC4)cc3nc3cc(NC(=O)CCN4CCCC4)ccc23)cc1 . Is its viability, T/C strictly less than 50%?
Result: NOT MET

Query: Consider the compound COc1cc(C2c3cc4c(cc3C(OC3OC5COC(C)OC5C(O)C3O)C3COC(=O)C23)OCO4)cc(OC)c1O (stereo not given) + CN(C)c1ccc(Nc2c3ccc(NC(=O)CCN4CCCC4)cc3nc3cc(NC(=O)CCN4CCCC4)ccc23)cc1 . Is its viability, T/C strictly less than 50%?
Result: MET

Query: Consider the compound COc1ncnc(C2CC2)c1-c1ncc2cnn(Cc3ccc(-c4nc(C(F)(F)F)cn4C(C)C)cc3)c2n1 + Cc1cnc(CNC(=O)c2c(=O)c3ccc(N4CCCN(C)CC4)nc3n3c2sc2ccccc23)cn1 . Is its viability, T/C strictly less than 50%?
Result: MET

Query: Consider the compound COc1cc(C2c3cc4c(cc3C(OC3OC5COC(C)OC5C(O)C3O)C3COC(=O)C23)OCO4)cc(OC)c1O (stereo not given) + Cc1cnc(CNC(=O)c2c(=O)c3ccc(N4CCCN(C)CC4)nc3n3c2sc2ccccc23)cn1 . Is its viability, T/C strictly less than 50%?
Result: MET

* * *

Listing of recorded IC50 by entry.
# System: SUM149PT spheroids with HUVEC/MSC, viability
# TEST NAME: Anticancer human tumor SUM149PT cell line growth inhibition [GQUAD];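 note: spheroids exposed to drugs for seven days before readout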
# TEST PARAMETERS: curve of first compound; second compound 1 µM

# example entries with known answers
Cc1cccc(N(C)C(=O)C2C(O)CCN2c2nc(C)cc(C(F)(F)F)c2C#N)c1 (stereo not given) + CN(C)c1ccc(Nc2c3ccc(NC(=O)CCN4CCCC4)cc3nc3cc(NC(=O)CCN4CCCC4)ccc23)cc1
> 10000 nM
CCc1c2c(nc3ccc(O)cc13)-c1cc3c(c(=O)n1C2)COC(=O)[C@]3(O)CC + Cc1cnc(CNC(=O)c2c(=O)c3ccc(N4CCCN(C)CC4)nc3n3c2sc2ccccc23)cn1
< 0.999 nM
COc1ccc([C@@H](O)c2cc(-c3ncnc4cc(N5CCOCC5)ccc34)c(F)cc2Cl)nn1 + Cc1cnc(CNC(=O)c2c(=O)c3ccc(N4CCCN(C)CC4)nc3n3c2sc2ccccc23)cn1
< 31.6 nM

Query: Which value of IC50 has been reported for C#Cc1c(F)ccc2cc(O)cc(-c3ncc4c(N5CC6CCC(C5)N6)nc(OCC56CCCN5CC(F)C6)nc4c3F)c12 (stereo not given) + Cc1cnc(CNC(=O)c2c(=O)c3ccc(N4CCCN(C)CC4)nc3n3c2sc2ccccc23)cn1 in the records?
Result: < 31.6 nM

Query: Which value of IC50 has been reported for CC[C@@]1(O)C(=O)OCc2c1cc1n(c2=O)Cc2cc3c(CN(C)C)c(O)ccc3nc2-1 + Cc1cnc(CNC(=O)c2c(=O)c3ccc(N4CCCN(C)CC4)nc3n3c2sc2ccccc23)cn1 in the records?
Result: < 0.999 nM

* * *

Listing of recorded viability, T/C by entry.
# Test system: SUM149PT spheroids with HUVEC/MSC, viability
# TEST NAME: Anticancer human tumor SUM149PT cell line growth inhibition [GQUAD];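 note: spheroids exposed to drugs for seven days before readout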;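 for viability, T/C: percent viability relative to DMSO vehicle control taken as 100%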
# TEST PARAMETERS: second compound 0.316 µM; first compound 0.1 µM; stronger effect = lower value
Response body: numeric value in %, unit text excluded.

# example entries with known answers
CC(C)n1c(=O)n(C)c2cnc3cc(F)c(-c4ccc(OCCCN5CCCCC5)nc4)cc3c21 + Cc1cnc(CNC(=O)c2c(=O)c3ccc(N4CCCN(C)CC4)nc3n3c2sc2ccccc23)cn1
57
CC(C)(O)C1CCC(Nc2ccc3ncc(-c4cccc(C(F)(F)F)c4)n3n2)CC1 (stereo not given) + Cc1[nH]c2ccc(F)cc2c1-c1nc2c3cccnc3c3ncccc3c2[nH]1
97.7
COc1cc(C2c3cc4c(cc3C(OC3OC5COC(C)OC5C(O)C3O)C3COC(=O)C23)OCO4)cc(OC)c1O (stereo not given) + Cc1[nH]c2ccc(F)cc2c1-c1nc2c3cccnc3c3ncccc3c2[nH]1
82.3
CC(C)n1c(=O)n(C)c2cnc3cc(F)c(-c4ccc(OCCCN5CCCCC5)nc4)cc3c21 + CN(C)c1ccc(Nc2c3ccc(NC(=O)CCN4CCCC4)cc3nc3cc(NC(=O)CCN4CCCC4)ccc23)cc1
79.4

// next entry
Query: Which value of viability, T/C has been reported for O=C(NO)c1cnc(N2CCN(S(=O)(=O)c3ccc4ccccc4c3)CC2)nc1 + CN(C)c1ccc(Nc2c3ccc(NC(=O)CCN4CCCC4)cc3nc3cc(NC(=O)CCN4CCCC4)ccc23)cc1 in the records?
Result: 98.1

* * *

# Test system: SUM149PT spheroids with HUVEC/MSC, viability
# TEST NAME: Anticancer human tumor SUM149PT cell line growth inhibition [GQUAD];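 note: spheroids exposed to drugs for seven days before readout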;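 for viability, T/C: percent viability relative to DMSO vehicle control taken as 100%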
# TEST PARAMETERS: second compound 0.0316 µM; first compound 0.00999 µM; stronger effect = lower value
Listing of recorded viability, T/C by entry.

# example entries with known answers
CC[C@@]1(O)C(=O)OCc2c1cc1n(c2=O)Cc2cc3c(CN(C)C)c(O)ccc3nc2-1 + CN(C)c1ccc(Nc2c3ccc(NC(=O)CCN4CCCC4)cc3nc3cc(NC(=O)CCN4CCCC4)ccc23)cc1
109%
Cc1[nH]c2ccccc2c1CCNCc1ccc(/C=C/C(=O)NO)cc1 + CN(C)c1ccc(Nc2c3ccc(NC(=O)CCN4CCCC4)cc3nc3cc(NC(=O)CCN4CCCC4)ccc23)cc1
96.5%
CC[C@@]1(O)C(=O)OCc2c1cc1n(c2=O)Cc2cc3c(CN(C)C)c(O)ccc3nc2-1 + Cc1[nH]c2ccc(F)cc2c1-c1nc2c3cccnc3c3ncccc3c2[nH]1
107%
CCc1c2c(nc3ccc(O)cc13)-c1cc3c(c(=O)n1C2)COC(=O)[C@]3(O)CC + Cc1[nH]c2ccc(F)cc2c1-c1nc2c3cccnc3c3ncccc3c2[nH]1
43.4%
CC[C@@]1(O)C(=O)OCc2c1cc1n(c2=O)Cc2cc3c(CN(C)C)c(O)ccc3nc2-1 + Cc1cnc(CNC(=O)c2c(=O)c3ccc(N4CCCN(C)CC4)nc3n3c2sc2ccccc23)cn1
77.7%

// next entry
Query: Which value of viability, T/C has been reported for CCc1c2c(nc3ccc(O)cc13)-c1cc3c(c(=O)n1C2)COC(=O)[C@]3(O)CC + Cc1cnc(CNC(=O)c2c(=O)c3ccc(N4CCCN(C)CC4)nc3n3c2sc2ccccc23)cn1 in the records?
Result: 42.1%

* * *

# Tested on: SUM149PT spheroids with HUVEC/MSC, viability
# TEST NAME: Anticancer human tumor SUM149PT cell line growth inhibition [GQUAD];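 note: spheroids exposed to drugs for seven days before readout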;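 for viability, T/C: percent viability relative to DMSO vehicle control taken as 100%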
# TEST PARAMETERS: second compound 1 µM; first compound 0.00316 µM; stronger effect = lower value
Listing of recorded viability, T/C by entry.
Response body: numeric value in %, unit text excluded.

# example entries with known answers
CC[C@@]1(O)C(=O)OCc2c1cc1n(c2=O)Cc2cc3c(CN(C)C)c(O)ccc3nc2-1 + CN(C)c1ccc(Nc2c3ccc(NC(=O)CCN4CCCC4)cc3nc3cc(NC(=O)CCN4CCCC4)ccc23)cc1
88.2
Cn1ncnc1[C@H]1c2n[nH]c(=O)c3cc(F)cc(c23)N[C@@H]1c1ccc(F)cc1 + Cc1[nH]c2ccc(F)cc2c1-c1nc2c3cccnc3c3ncccc3c2[nH]1
94.5

Query: Which value of viability, T/C has been reported for Cc1[nH]c2ccccc2c1CCNCc1ccc(/C=C/C(=O)NO)cc1 + Cc1[nH]c2ccc(F)cc2c1-c1nc2c3cccnc3c3ncccc3c2[nH]1 in the records?
Result: 96.6

* * *

# System: SUM149PT spheroids with HUVEC/MSC, viability
# TEST NAME: Anticancer human tumor SUM149PT cell line growth inhibition [GQUAD]; active = viability on the fitted dose curve at most 10% of control; inactive = the rest;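 note: spheroids exposed to drugs for seven days before readout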
# TEST PARAMETERS: second compound 0.1 µM; first compound 3.16 µM
Write down one outcome, taken from class 1 for active, class 0 for inactive

COc1ncnc(C2CC2)c1-c1ncc2cnn(Cc3ccc(-c4nc(C(F)(F)F)cn4C(C)C)cc3)c2n1 + CN(C)c1ccc(Nc2c3ccc(NC(=O)CCN4CCCC4)cc3nc3cc(NC(=O)CCN4CCCC4)ccc23)cc1
class 0
O=C(NO)c1cnc(N2CCN(S(=O)(=O)c3ccc4ccccc4c3)CC2)nc1 + Cc1cnc(CNC(=O)c2c(=O)c3ccc(N4CCCN(C)CC4)nc3n3c2sc2ccccc23)cn1
class 1
C=CCn1c(=O)c2cnc(Nc3ccc(N4CCN(C)CC4)cc3)nc2n1-c1cccc(C(C)(C)O)n1 + Cc1cnc(CNC(=O)c2c(=O)c3ccc(N4CCCN(C)CC4)nc3n3c2sc2ccccc23)cn1
class 1
O=c1[nH]cc(F)c(=O)[nH]1 + Cc1cnc(CNC(=O)c2c(=O)c3ccc(N4CCCN(C)CC4)nc3n3c2sc2ccccc23)cn1
class 0

Query: Look up the recorded call for COc1ncnc(C2CC2)c1-c1ncc2cnn(Cc3ccc(-c4nc(C(F)(F)F)cn4C(C)C)cc3)c2n1 + Cc1[nH]c2ccc(F)cc2c1-c1nc2c3cccnc3c3ncccc3c2[nH]1 in this test.
Result: class 0

Query: Look up the recorded call for O=C(c1cc(Cc2n[nH]c(=O)c3ccccc23)ccc1F)N1CCN(C(=O)C2CC2)CC1 + Cc1[nH]c2ccc(F)cc2c1-c1nc2c3cccnc3c3ncccc3c2[nH]1 in this test.
Result: class 0
